Origin of values: patent US4107299A

- System: insulated, electrically stimulated left atrium of the guinea pig
- PROTOCOL_NOTES: Therapeutic effect and therapeutic spectrum at the insulated, electrically stimulated left atrium of the guinea pig
- Format: cell-based
- TEST_SETTINGS: Cavia porcellus; increase of the amplitude to 50% of the difference between normal and reduced calcium content; mean and average deviation; read-out: EC50 increase
OUTCOME_MEASURE: pEC50
The value called pEC50 is obtained by taking minus log10 of the concentration in mol/L.

Q: Requested read-out pEC50, target or system insulated, electrically stimulated left atrium of the guinea pig, entry CC(=O)O[C@H]1[C@@H](O)C[C@H](O[C@H]2[C@@H](O)C[C@H](O[C@H]3[C@@H](O)C[C@H](O[C@H]4CC[C@@]5(C)[C@H](CC[C@@H]6[C@@H]5C[C@H](O)[C@]5(C)[C@@H](C7=CC(=O)OC7)CC[C@]65O)C4)O[C@@H]3C)O[C@@H]2C)O[C@@H]1C [Example 6, β-Acetyl-12-epi-digoxin]
Result: 6.04

Q: Next record, please: CCC1=C([C@H]2CC[C@]3(O)[C@@H]4CC[C@@H]5C[C@@H](O[C@H]6C[C@H](O)[C@H](O[C@H]7C[C@H](O)[C@H](O[C@H]8C[C@H](O)[C@H](O)[C@@H](C)O8)[C@@H](C)O7)[C@@H](C)O6)CC[C@]5(C)[C@H]4C[C@H](O)[C@]23C)COC1=O [Example 9, 22-Ethyl-12-epi-digoxin]
Result: 5.18

Q: Next record, please: CO[C@H]1[C@@H](O)C[C@H](O[C@H]2[C@@H](O)C[C@H](O[C@H]3[C@@H](O)C[C@H](O[C@H]4CC[C@@]5(C)[C@H](CC[C@@H]6[C@@H]5C[C@@H](O)[C@]5(C)[C@@H](C7=CC(=O)OC7)CC[C@]65O)C4)O[C@@H]3C)O[C@@H]2C)O[C@@H]1C [methyldigoxina., β-methyldigoxin, reference compound]
Result: 6.64

Q: Next record, please: CO[C@H]1[C@@H](O)C[C@H](O[C@H]2[C@@H](O)C[C@H](O[C@H]3[C@@H](O)C[C@H](O[C@H]4CC[C@@]5(C)[C@H](CC[C@@H]6[C@@H]5C[C@H](OC(C)=O)[C@]5(C)[C@@H](C7=CC(=O)OC7)CC[C@]65O)C4)O[C@@H]3C)O[C@@H]2C)O[C@@H]1C [Example 18, 12-Acetyl-12-epi-β-methyldigoxin]
Result: 5.33
